Documented IC50 across a set of molecules
Biological target: recombinant human Flag-tagged PARP7 (amino acids 456-657) (Homo sapiens, UniProt Q7Z3E1)
Construct: recombinant human Flag-tagged PARP7 (amino acids 456-657)
Sequence (Q7Z3E1 456-657): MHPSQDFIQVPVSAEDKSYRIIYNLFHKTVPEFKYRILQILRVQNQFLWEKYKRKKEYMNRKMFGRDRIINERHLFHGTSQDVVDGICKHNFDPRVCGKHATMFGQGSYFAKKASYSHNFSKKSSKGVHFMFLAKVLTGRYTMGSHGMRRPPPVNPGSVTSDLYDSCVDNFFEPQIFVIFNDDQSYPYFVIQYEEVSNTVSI
Test: PARP7 biochemical DELFIA assay (auto-MARylation)
Settings: DELFIA readout, IC50 class

molecule	testResult
O=C(CCOCCn1nc(C(F)(F)F)c2c(=O)[nH]ncc21)N1CCN(c2cc(C(F)(F)F)[nH]n2)CC1 [Compound 471]	≤ 100 nM
CC(COCCC(=O)N1CCN(c2cnc(C(F)(F)F)cn2)CC1)n1nc(C(F)(F)F)c2c(=O)[nH]ncc21 (single isomer, unassigned) [Compound 266]	≤ 100 nM
O=C(CCOCCn1ncc2c(=O)[nH]ncc21)N1CCN(c2ccc(Cl)cn2)CC1 [Compound 133]	≤ 100 nM
CNCc1cc2c(=O)[nH]ncc2n1CCOCCC(=O)N1CCN(c2ncc(C(F)(F)F)cn2)CC1 [Compound 49]	100 to 1000 nM
N#Cc1ccc(N2CCN(C(=O)c3cccc(COc4cccc5c(=O)[nH]ncc45)c3)CC2)nc1 [Compound 40]	100 to 1000 nM

Ask: For the molecule CC(COCCC(=O)N1CCN(c2cc(C(F)(F)F)ccn2)CC1)n1nc(C(F)(F)F)c2c(=O)[nH]ncc21 (centres unmarked) [Compound 351] , give its measured IC50 value.
Reply: ≤ 100 nM

Ask: For the molecule CC(COCCC(=O)N1CCN(c2ccc(C#N)cn2)CC1)n1nc(C(F)F)c2c(=O)[nH]ncc21 (centres unmarked) [Compound 438] , give its measured IC50 value.
Reply: ≤ 100 nM

Ask: For the molecule Cc1c(C(F)(F)F)c2c(=O)[nH]ncc2n1C(C)COCCC(=O)N1CCN(c2ncc(C(F)(F)F)cn2)CC1 (centres unmarked) [Compound 474] , give its measured IC50 value.
Reply: ≤ 100 nM

Ask: For the molecule Cc1nn(C(C)COCCC(=O)N2CCN(c3ncc(Cl)cn3)CC2)c2cn[nH]c(=O)c12 (centres unmarked) [Compound 336] , give its measured IC50 value.
Reply: ≤ 100 nM

Ask: For the molecule CC(COCCC(=O)N1CCN(c2nc(C#N)co2)CC1)n1nc(C(F)(F)F)c2c(=O)[nH]ncc21 (single isomer, unassigned) [Compound 318] , give its measured IC50 value.
Reply: 100 to 1000 nM

Ask: For the molecule CC(COCCC(=O)N1CCN(c2ccc(C#N)cn2)CC1)n1nc(C(F)(F)F)c2c(=O)[nH]ncc21 (centres unmarked) [Compound 269] , give its measured IC50 value.
Reply: ≤ 100 nM

Ask: For the molecule Cn1c(N2CCN(C(=O)CCOCCc3cccc4c(=O)[nH]ncc34)CC2)nc2ccccc21 [Compound 214] , give its measured IC50 value.
Reply: ≤ 100 nM

Ask: For the molecule CC(COCCC(=O)N1CCN(c2ncc(C#N)cn2)CC1)n1nc(C(F)F)c2c(=O)[nH]ncc21 (single isomer, unassigned) [Compound 490] , give its measured IC50 value.
Reply: ≤ 100 nM

Ask: For the molecule CC(COCCC(=O)N1CCN(c2ncc(C#N)cn2)CC1)n1cc(C(F)(F)F)c2c(=O)[nH]ncc21 (single isomer, unassigned) [Compound 464] , give its measured IC50 value.
Reply: ≤ 100 nM
